Test system: Pseudomonas aeruginosa ATCC 8689
Test: MIC against bacteria (Table I), strain (4)
Assay type: cell-based
Conditions: ATCC8689; (4) Pseudomonas aeruginosa ATCC 8689; read-out: MIC
Excerpt: Now, for illustrating the excellent pharmacological effects of the compounds of this invention, the values of MIC (γ/ml.) of the compounds against various bacteria are shown in Table 1, in which the compounds of this invention used are shown by example numbers. (4) Pseudomonas aeruginosa ATCC 8689
experimental.readout: MIC

[[record]]
compound = "O=C(O)CSc1nnc(SCC2=C(C(=O)O)N3C(=O)[C@@H](NC(=O)[C@H](NC(=O)c4csccc4=O)c4ccccc4)[C@H]3SC2)s1 [Example 10]"
result = "25 µg/mL"


State its MIC on Pseudomonas aeruginosa ATCC 8689: Cc1cc(O)c(C(=O)N[C@@H](C(=O)N[C@@H]2C(=O)N3C(C(=O)O)=C(CSc4nnc(SCC(=O)O)s4)CS[C@H]23)c2ccccc2)cn1 [Example 29] 12.5 µg/mL

Field entry: Cc1nc(SCC2=C(C(=O)O)N3C(=O)[C@@H](NC(=O)[C@H](NC(=O)c4cnccc4O)c4ccccc4)[C@H]3SC2)sc1C(=O)O [Example 14] 25 µg/mL

Follow-up entry: O=C(O)C1=C(CSc2nnc(SCCS(=O)(=O)O)s2)CS[C@@H]2[C@H](NC(=O)[C@H](NC(=O)c3cnccc3O)c3ccccc3)C(=O)N12 [Example 9] 12.5 µg/mL

And then COc1ccncc1C(=O)N[C@@H](C(=O)N[C@@H]1C(=O)N2C(C(=O)O)=C(CSc3nnc(SCC(=O)O)s3)CS[C@H]12)c1ccccc1 [Example 26] , what is it? 12.5 µg/mL

Same read-out for Cc1nnc(SCC2=C(C(=O)O)N3C(=O)[C@@H](NC(=O)Cn4cnnn4)[C@H]3SC2)s1 [Cephazolin, reference compound] ? > 100 µg/mL

Same question, CC1=C(C(=O)O)N2C(=O)[C@@H](NC(=O)[C@H](N)c3ccccc3)[C@H]2SC1 [Cephalexin, reference compound] this time > 100 µg/mL

---

tested on: Proteus vulgaris 0X 19US; assay: MIC against bacteria (Table I), strain (2); assay type: cell-based; settings: 0X19US; (2) Proteus vulgaris 0X 19US; read-out: MIC
experimental.readout: MIC

Observe how each entry below is paired with its result.
[[record]]
compound = "O=C(O)C1=C(CSc2nnc(SCCS(=O)(=O)O)s2)CS[C@@H]2[C@H](NC(=O)[C@H](NC(=O)c3cnccc3O)c3ccccc3)C(=O)N12"
experimental_readout = "MIC"
result = "0.39 µg/mL"

[[record]]
compound = "Cc1nnc(SCC2=C(C(=O)O)N3C(=O)[C@@H](NC(=O)Cn4cnnn4)[C@H]3SC2)s1 [Cephazolin, reference compound]"
experimental_readout = "MIC"
result = "25 µg/mL"


Lab note: next compound to report on.
What value of measured MIC is listed for `Cc1nc(SCC2=C(C(=O)O)N3C(=O)[C@@H](NC(=O)[C@H](NC(=O)c4cnccc4O)c4ccccc4)[C@H]3SC2)sc1SCC(=O)O` ? < 0.09 µg/mL

---

assay: Residual antibacterial activity after incubation with 10% liver homogenate (Table 4); assay type: in vitro ADME, male Sprague-Dowley rat; conditions: rat, 10% liver homogenate
experimental.readout: remaining at 0.25 h (%)
Field: numeric (%). Do not append units.

Which remaining at 0.25 h is listed for CC(=O)OCC1=C(C(=O)O)N2C(=O)[C@@H](NC(=O)Cc3cccs3)[C@H]2SC1 [Cephalotin, reference compound] ? 17.2

---

test: Residual antibacterial activity after incubation with 10% liver homogenate (Table 4); format: in vitro ADME, male Sprague-Dowley rat; conditions: 10% liver homogenate; 10% rat liver homogenate, 30 minute; read-out: Residual activity
Reported remaining at 0.5 h values are given for each entry in this list.
Hi! Could you send only the number? It should be in %, unit omitted.

Recorded results for 3 compounds are shown here.
[[record]]
compound = "O=C(Cc1cccs1)N[C@@H]1C(=O)N2C(C(=O)[O-])=C(C[n+]3ccccc3)CS[C@H]12 [Cephaloridine, reference compound]"
unit_name = "%"
recorded_number = 86

[[record]]
compound = "O=C(O)CCc1nnc(SCC2=C(C(=O)O)N3C(=O)[C@@H](NC(=O)[C@H](NC(=O)c4cnccc4O)c4ccccc4)[C@H]3SC2)s1"
unit_name = "%"
recorded_number = 89.1

[[record]]
compound = "O=C(O)C1=C(CSc2nnc(SCCS(=O)(=O)O)s2)CS[C@@H]2[C@H](NC(=O)[C@H](NC(=O)c3cnccc3O)c3ccccc3)C(=O)N12"
unit_name = "%"
recorded_number = 100


In the following, a different compound is considered.
Entry `O=C(O)CSc1nnc(SCC2=C(C(=O)O)N3C(=O)[C@@H](NC(=O)[C@H](NC(=O)c4cnccc4O)c4ccccc4)[C@H]3SC2)s1` : reported remaining at 0.5 h = ? 91.3

---

Assay: Residual antibacterial activity after incubation with 10% liver homogenate (Table 4)
Type: in vitro ADME, male Sprague-Dowley rat
Settings: rat, 10% liver homogenate
Experimental: The relation between the reaction period of time and the antibacterial activity (residual activity, %) when these compounds are incubated with the plasma and the liver homogenate of a male Sprague-Dowley rat is shown in Table 4. The residual antibacterial activity was measured by a thin-layer cup method according to Bacillus subtilis ATCC 6633. B*Residual activity (%) when incubated with 10% liver homogenate.
experimental.readout: remaining at 1.5 h (%)
Report the figure in % without appending any unit label.

Look at this compound and give its reported remaining at 1.5 h. CC(=O)OCC1=C(C(=O)O)N2C(=O)[C@@H](NC(=O)Cc3cccs3)[C@H]2SC1 [Cephalotin, reference compound] 12.6

---

Tested on: Staphylococcus Onuma
Test: MIC against bacteria (Table I), strain (18)
Format: cell-based
Details: Staphylococcus
Description: Now, for illustrating the excellent pharmacological effects of the compounds of this invention, the values of MIC (γ/ml.) of the compounds against various bacteria are shown in Table 1, in which the compounds of this invention used are shown by example numbers. (18) Staphylococcus Onuma
# maps each entry to its MIC
Provide the reading as a plain figure in µg/mL.

Could you share which MIC value was measured for `O=C(O)CCSc1nnc(SCC2=C(C(=O)O)N3C(=O)[C@@H](NC(=O)[C@H](NC(=O)c4cnccc4O)c4ccccc4)[C@H]3SC2)s1` ? 6.25

Next molecule: `O=C(O)C1=C(CSc2nnc(SCCS(=O)(=O)O)s2)CS[C@@H]2[C@H](NC(=O)[C@H](NC(=O)c3cnccc3O)c3ccccc3)C(=O)N12` 6.25

// repeat for CC(=O)OCC1=C(C(=O)O)N2C(=O)[C@@H](NC(=O)Cc3cccs3)[C@H]2SC1 [Cephalotin, reference compound] and report 0.39

---

Let's look at some compounds and their measured MIC.
test system: Proteus vulgaris 0X 19US; assay: MIC against bacteria (Table I), strain (2); assay type: cell-based; details: 0X19US; (2) Proteus vulgaris 0X 19US; read-out: MIC

Worked set:
[[record]]
molecule_smiles = "O=C(O)CSc1nnc(SCC2=C(C(=O)O)N3C(=O)[C@@H](NC(=O)[C@H](NC(=O)c4cnccc4O)c4ccccc4)[C@H]3SC2)s1"
test_target = "Proteus vulgaris 0X 19US"
result = "0.19 µg/mL"

[[record]]
molecule_smiles = "Cc1ncc(C(=O)N[C@@H](C(=O)N[C@@H]2C(=O)N3C(C(=O)O)=C(CSc4nnc(SCC(=O)O)s4)CS[C@H]23)c2ccccc2)c(O)n1"
test_target = "Proteus vulgaris 0X 19US"
result = "< 0.09 µg/mL"


Please look at the following compound next.
Consider the compound `O=C(O)CSc1cc(SCC2=C(C(=O)O)N3C(=O)[C@@H](NC(=O)[C@H](NC(=O)c4cnccc4O)c4ccccc4)[C@H]3SC2)ncn1` and give its measured MIC. < 0.09 µg/mL

---

The following compounds are listed with their measured MIC values.
system: Proteus vulgaris 0X 19US; experiment: MIC against bacteria (Table I), strain (2); type: cell-based; settings: 0X19US; (2) Proteus vulgaris 0X 19US; read-out: MIC
Respond with the bare value in µg/mL.

[[record]]
compound = "CC(=O)OCC1=C(C(=O)O)N2C(=O)[C@@H](NC(=O)[C@H](N)c3ccccc3)[C@H]2SC1 [Cephaloglycin, reference compound]"
recorded_number = 100

[[record]]
compound = "O=C(O)CCC(=O)Nc1nnc(SCC2=C(C(=O)O)N3C(=O)[C@@H](NC(=O)[C@H](NC(=O)c4csccc4=O)c4ccccc4)[C@H]3SC2)s1 [Example 1]"
recorded_number = 0.19

[[record]]
compound = "Cc1cc(O)c(C(=O)N[C@@H](C(=O)N[C@@H]2C(=O)N3C(C(=O)O)=C(CSc4nnc(SCC(=O)O)s4)CS[C@H]23)c2ccccc2)cn1 [Example 29]"
recorded_number = 12.5


Let us examine a further case.
Using the record for O=C(O)CCCc1nnc(SCC2=C(C(=O)O)N3C(=O)[C@@H](NC(=O)[C@H](NC(=O)c4cnccc4O)c4ccccc4)[C@H]3SC2)s1 [Example 35] , report its MIC. 50
